Test system: TCDD induced CYP1-dependent EROD activity in HaCaT cells
assay remarks: TCDD-induced cellular EROD activity in HaCaT cells, co-exposure with oxy-PAH
Assay type: cell-based, human
setup conditions: TCDD 5 nM + 0.1-10 μM oxy-PAH, 6, 12, 24 h
reported property: inhibition of TCDD-mediated EROD activity (in words)

[[record]]
compound = "O=C1c2ccccc2C(=O)c2c1ccc1ccccc21 [7,12-BAQ, benz[a]anthracene-7,12-quinone]"
recorded_value = "most potent inhibitors"

[[record]]
compound = "O=C1c2cccc3ccc4ccc5cccc1c5c4c23 [6H-BPO, 6H-benzo[cd]pyren-6-one]"
recorded_value = "significant inhibition"

[[record]]
compound = "O=C1c2ccccc2C(=O)c2cc3ccccc3cc21"
recorded_value = "significant inhibition"

[[record]]
compound = "O=C1c2ccccc2-c2ccc3ccccc3c21 [BFLO, benzo[a]fluorenone]"
recorded_value = "most potent inhibitors"

[[record]]
compound = "Cc1cc2c(cc1C)C(=O)c1ccccc1C2=O"
recorded_value = "significant inhibition"

[[record]]
compound = "O=C1c2ccccc2C(=O)c2ccccc21"
recorded_value = "significant inhibition"

